Test system: DU-145
Experiment: NCI screen antiproliferative activity, prostate DU-145
Format: cell-based, human
Settings: concentration corresponding to 50% growth inhibition; read-out: cytotoxicity GI50 prostate DU-145
Metric: GI50 (nM)
Field format: number, assumed nM, no unit text.

Request the reported GI50 associated with O=C1c2cc3c(cc2-c2c1c1ccc([N+](=O)[O-])cc1c(=O)n2CCCCl)OCO3 [Compound 15]
98

Quick one: GI50 for CN1C(=O)c2cc([N+](=O)[O-])ccc2C2C(=O)c3cc4c(cc3C21)OCO4 (racemic) [Compound 14] ?
50

Would you kindly share the measured GI50 for Cl.NCCCn1c2c(c3ccc([N+](=O)[O-])cc3c1=O)C(=O)c1ccccc1-2 [Compound 24] ?
148
